Value source: ChEMBL document CHEMBL4765234

assay: AUC in hyperglycemic Balb/c mouse plasma at greater than 0.58 mg/kg measured upto 60 mins; type: ADME, organism-based; parameters: dose 0.58 mg/kg, time <=60
assayEndpoint: AUC at 1 h (ng·h/mL)

>>> numericresult("CC#C[C@@H](CC(=O)O)c1ccc(OCc2ccc(CN3CCC4(C=Cc5ccccc54)CC3)cc2)cc1")
218

----------
Quick list: bioavailability per entry.
assay: Oral bioavailability in rat at 3 mg/kg by LC/MS/MS analysis; type: ADME, organism-based; details: in vivo
assayEndpoint: bioavailability

>>> result("CC#C[C@@H](CC(=O)O)c1ccc(OCc2ccc(CN3CCCc4cccc(OC)c43)s2)cc1")
"95%"
>>> result("CC#C[C@@H](CC(=O)O)c1ccc(OCc2ccc(CN3CCC4(CCc5ccccc54)CC3)s2)cc1")
"46%"
